I'd be grateful if you could share measured Smax for these entries.
# target.or.test.system: Nociceptin receptor (Homo sapiens, UniProt P41146)
# Sequence (P41146 whole entry): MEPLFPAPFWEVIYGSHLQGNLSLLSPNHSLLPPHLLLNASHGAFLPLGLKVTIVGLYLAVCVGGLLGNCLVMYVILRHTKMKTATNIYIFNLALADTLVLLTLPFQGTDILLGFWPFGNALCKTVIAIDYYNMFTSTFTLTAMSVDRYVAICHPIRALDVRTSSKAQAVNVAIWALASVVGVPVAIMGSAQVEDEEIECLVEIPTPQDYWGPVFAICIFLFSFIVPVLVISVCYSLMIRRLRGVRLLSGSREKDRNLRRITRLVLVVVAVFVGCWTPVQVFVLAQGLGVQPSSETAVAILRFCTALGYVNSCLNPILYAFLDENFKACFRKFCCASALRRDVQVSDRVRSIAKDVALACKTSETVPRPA
# experiment.description: Agonist activity at human recombinant NOPR receptor expressed in CHO cell membranes at 10 uM after 60 mins by [35S]GTPgammaS binding assay relative to nociceptin
# Type: functional
Give bare numbers, in %.

O=C1CCC2=C([C@@H]3Oc4c(O)ccc5c4[C@@]34CCN(CC3CC3)[C@H](C5)[C@]4(O)C2)N1Cc1cccc(F)c1 = 7
O=C1CCC2=C([C@@H]3Oc4c(O)ccc5c4[C@@]34CCN(CC3CC3)[C@H](C5)[C@]4(O)C2)N1Cc1ccccc1 = 12
O=C1CCC2=C([C@@H]3Oc4c(O)ccc5c4[C@@]34CCN(CC3CC3)[C@H](C5)[C@]4(O)C2)N1CC1CCCCC1 = 5
O=C1CCC2=C([C@@H]3Oc4c(O)ccc5c4[C@@]34CCN(CC3CC3)[C@H](C5)[C@]4(O)C2)N1Cc1cccc(Cl)c1 = 7
C=CCN1CC[C@]23c4c5ccc(O)c4O[C@H]2C2=C(CCC(=O)N2CCc2ccccc2)C[C@@]3(O)[C@H]1C5 = 4

Please give the measured Smax for this compound: "O=C1CCC2=C([C@@H]3Oc4c(O)ccc5c4[C@@]34CCN(CC3CC3)[C@H](C5)[C@]4(O)C2)N1CCc1ccccc1"
5
